biological target: met (HGF receptor) in human gastric cancer cells MKN45 (Homo sapiens); construct: endogenous in cells; assay: Inhibitory activity against met-autophosphorylation using ELISA method (2), MKN45 cells, HGF-independent
Give log10 of IC50 for every item shown.
Please be aware that the numbers have been log10-transformed from IC50 in nM.

Tell me the measured log10 of IC50 of COc1cc2nccc(Oc3ccc(NC(=S)NC(=O)Cc4cccc(C)c4)c(F)c3)c2cc1OC [Example 175] , please.
2.98

Repeat with COc1cc2c(Oc3ccc(NC(=O)NC(=O)Cc4ccccc4)cc3F)ccnc2cc1OCCCN1CCCC1 [Example 292]
1.31

Repeat with COc1cc2c(Oc3ccc(NC(=O)NC(=O)Cc4ccc(F)cc4)c(F)c3)ccnc2cc1OCc1ccccc1 [Example 40]
2.38

Repeat with COc1cc2c(Oc3ccc(NC(=S)NC(=O)Cc4ccccc4Cl)cc3F)ccnc2cc1OCC(O)CN1CCCC1 (stereo not shown) [Example 317]
1.63

Repeat with COc1cc2nccc(Oc3ccc(NC(=O)C(C)(C)C(=O)Nc4ccc(F)cc4F)cc3)c2cc1OC [Example 104]
2.54

Repeat with COc1cc2nccc(Oc3ccc(NC(=O)NC(=O)Nc4ncc(C)cc4Br)cc3)c2cc1OC [Example 230]
2.53

Repeat with COc1cc2nccc(Oc3ccc(NC(=S)NC(=O)CC4C5CCC4CC5)cc3Cl)c2cc1OC (stereo not shown) [Example 91]
1.60

###

target: met (HGF receptor) in human gastric cancer cells MKN45 (Homo sapiens, UniProt P08581); construct: endogenous in cells; host or cells: MKN45 human gastric cancer cells; assay: Inhibitory activity against met-autophosphorylation using ELISA method (2), MKN45 cells, HGF-independent; format: cell-based
Sequence (P08581 25-1390): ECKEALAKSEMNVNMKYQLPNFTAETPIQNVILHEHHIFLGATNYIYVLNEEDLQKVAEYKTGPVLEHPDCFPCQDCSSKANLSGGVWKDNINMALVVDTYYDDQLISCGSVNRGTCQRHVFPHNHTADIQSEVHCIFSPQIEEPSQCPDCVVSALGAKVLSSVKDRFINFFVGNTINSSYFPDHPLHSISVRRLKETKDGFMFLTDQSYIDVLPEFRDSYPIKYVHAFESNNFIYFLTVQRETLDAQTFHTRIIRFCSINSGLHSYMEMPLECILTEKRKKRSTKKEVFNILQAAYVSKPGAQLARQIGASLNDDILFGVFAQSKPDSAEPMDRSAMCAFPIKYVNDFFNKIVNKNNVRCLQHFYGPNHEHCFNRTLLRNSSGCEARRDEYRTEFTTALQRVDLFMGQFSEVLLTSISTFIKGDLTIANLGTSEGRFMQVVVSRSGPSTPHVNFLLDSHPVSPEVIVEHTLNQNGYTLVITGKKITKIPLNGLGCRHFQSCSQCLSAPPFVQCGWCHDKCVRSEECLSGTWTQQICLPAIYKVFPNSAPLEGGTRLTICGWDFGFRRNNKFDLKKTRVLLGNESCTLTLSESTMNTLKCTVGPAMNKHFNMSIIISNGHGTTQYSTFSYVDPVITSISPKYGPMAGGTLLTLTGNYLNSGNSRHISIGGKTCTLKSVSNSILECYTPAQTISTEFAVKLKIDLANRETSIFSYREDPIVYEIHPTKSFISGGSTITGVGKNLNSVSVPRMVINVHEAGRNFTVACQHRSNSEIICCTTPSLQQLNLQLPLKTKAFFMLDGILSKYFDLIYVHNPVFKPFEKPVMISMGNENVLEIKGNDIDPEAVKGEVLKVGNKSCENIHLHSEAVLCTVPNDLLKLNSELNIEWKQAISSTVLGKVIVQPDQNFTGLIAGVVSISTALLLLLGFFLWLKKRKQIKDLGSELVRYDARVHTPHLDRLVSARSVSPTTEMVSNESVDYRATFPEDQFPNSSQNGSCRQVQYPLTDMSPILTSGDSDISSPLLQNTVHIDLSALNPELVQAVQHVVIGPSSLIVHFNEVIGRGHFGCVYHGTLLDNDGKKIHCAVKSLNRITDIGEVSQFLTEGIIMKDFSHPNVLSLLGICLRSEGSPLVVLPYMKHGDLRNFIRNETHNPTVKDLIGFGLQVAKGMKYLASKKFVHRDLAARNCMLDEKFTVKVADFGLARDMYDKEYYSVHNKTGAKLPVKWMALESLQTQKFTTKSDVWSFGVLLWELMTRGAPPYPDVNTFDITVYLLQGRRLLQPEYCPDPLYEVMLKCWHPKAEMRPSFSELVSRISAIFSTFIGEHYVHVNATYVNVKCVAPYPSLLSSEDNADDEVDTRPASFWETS
pIC50: −log10 of the molar value.
Label rule, in plain words: pIC50 of 7 and up is Satisfied, under 7 is Not satisfied.

State whether the measured pIC50 reaches 7, counting equality as reaching it, for `COc1cc2c(Oc3ccc(NC(=O)NC(=O)Cc4ccccc4)cc3F)ccnc2cc1OCCCN1CCCCC1`
Not satisfied

Repeat with `COc1cc2nccc(Oc3ccc(NC(=O)CC(=O)Nc4ccc(F)cc4F)c(Cl)c3)c2cc1OC`
Not satisfied

Repeat with `COc1cc2nccc(Oc3ccc(NC(=S)NC(=O)Cc4cccc(C(F)(F)F)c4)cc3F)c2cc1OC`
Not satisfied

Repeat with `COc1cc2nccc(Oc3ccc(NC(=S)NC(=O)Cc4c(F)cccc4F)cc3F)c2cc1OC`
Satisfied

Repeat with `COc1cc2nccc(Oc3ccc(NC(=O)NC(=O)CSc4ccccc4)cc3)c2cc1OC`
Not satisfied

Repeat with `COc1cc2nccc(Oc3ccc(NC(=O)NC(=O)Cc4ccccc4)cc3F)c2cc1OC`
Satisfied

Repeat with `COc1cc2nccc(Oc3ccc(NC(=S)NC(=O)Cc4ccccc4)cc3OC)c2cc1OC`
Not satisfied

Repeat with `COc1cc2nccc(Oc3ccc(NC(=O)NC(=O)Cc4cccc(F)c4)c(F)c3)c2cc1OC`
Not satisfied

Repeat with `COc1cc2c(Oc3ccc(NC(=O)NC(=O)Cc4ccccc4F)cc3F)ccnc2cc1OCCCN1CCCC1`
Satisfied

Repeat with `COc1cc2nccc(Oc3ccc(NC(=S)NC(=O)Cc4c(Cl)cccc4Cl)c(F)c3)c2cc1OC`
Not satisfied

Repeat with `COc1cc2nccc(Oc3ccc(NC(=S)NC(=O)Cc4ccccc4)cc3C)c2cc1OC`
Satisfied

Repeat with `COc1cc2nccc(Oc3ccc(NC(=S)NC(=O)Cc4ccccc4C(F)(F)F)c(F)c3)c2cc1OC`
Not satisfied

Repeat with `COc1cc2nccc(Oc3ccc(NC(=S)NC(=O)Cc4ccc(C)cc4)cc3)c2cc1OC`
Not satisfied

Repeat with `COc1cccc(CC(=O)NC(=S)Nc2ccc(Oc3ccnc4cc(OC)c(OC)cc34)c(F)c2)c1`
Not satisfied

Repeat with `COc1cc2c(Oc3ccc(NC(=O)NC(=O)Cc4ccc(F)cc4)cc3F)ccnc2cc1OCCCCN1CCN(C)CC1`
Not satisfied

Repeat with `COc1cc2nccc(Oc3ccc(NC(=S)NC(=O)Cc4ccc(Cl)cc4)c(F)c3)c2cc1OC`
Not satisfied

Repeat with `COc1cc2nccc(Oc3ccc(NC(=S)NC(=O)Cc4cccc(Cl)c4)cc3)c2cc1OC`
Not satisfied

Repeat with `COc1cc2nccc(Oc3ccc(NC(=S)NC(=O)Cc4ccccc4Cl)cc3)c2cc1OC`
Not satisfied

Repeat with `COc1cc2nccc(Oc3ccc(NC(=O)NC(=O)Cc4ccc(F)cc4)cc3)c2cc1OC`
Satisfied

Repeat with `COc1ccccc1CC(=O)NC(=S)Nc1ccc(Oc2ccnc3cc(OC)c(OC)cc23)c(F)c1`
Satisfied

Repeat with `COc1cc2nccc(Oc3ccc(NC(=O)NC(=O)CN4CCC(Cc5ccccc5)CC4)cc3F)c2cc1OC`
Not satisfied

Repeat with `COc1cc2nccc(Oc3ccc(NC(=O)NC(=O)Nc4ccnn4C)cc3)c2cc1OC`
Not satisfied

Repeat with `COc1cc2nccc(Oc3ccc(NC(=O)NC(=O)Nc4ccccc4Oc4ccccc4)cc3)c2cc1OC`
Not satisfied

Repeat with `COc1cc2nccc(Oc3ccc(NC(=S)NC(=O)c4ccc(C)s4)cc3)c2cc1OC`
Not satisfied

Repeat with `COc1cc2nccc(Oc3ccc(NC(=S)NC(=O)Cc4ccc(F)cc4)c(F)c3)c2cc1OC`
Satisfied

Repeat with `CCN(CC)CCCOc1cc2nccc(Oc3ccc(NC(=O)NC(=O)Cc4ccccc4)cc3F)c2cc1OC`
Satisfied

Repeat with `COc1cc2nccc(Oc3ccc(NC(=O)NC(=O)Nc4cccc(C#N)c4)cc3)c2cc1OC`
Not satisfied
